molecular target: GLP-1 receptor; test: cell-based or functional assay
Ends that are not written are not given here.
Below, each of the binders is paired with its reported GLP-1 Receptor Activation value.
OBSERVABLE: GLP-1 Receptor Activation

INSERT INTO results (binder, obs_value) VALUES
  ('HVEGTFTSDVSSYLEGQAAKEFISWLVKGRG [Val^8-Ser^30-GLP-1(7-37)OH]', '0.19 relative to GLP-1(7-37)OH'),
  ('HVEGTFTSDLSSYLEGQAAEEFIAWLVKGRG [Val^8-Leu^16-Glu^26-GLP-1(7-37)OH]', '0.23 relative to GLP-1(7-37)OH'),
  ('HVEGTFTSDVSSYLEKQAAKEFIEWLVKGRG [Val^8-Lys^22-Glu^30-GLP-1(7-37)OH]', '0.37 relative to GLP-1(7-37)OH'),
  ('HAEGTFTSDVSSYLEGQAAHEFIAWLVKGRG [Ala^8-His^26-GLP-1(7-37)OH]', '0.8 relative to GLP-1(7-37)OH'),
  ('HVEGTFTSDVSSYLEGQAAKEFIAWLEKGRG [Val^8-Glu^33-GLP-1(7-37)OH]', '0.039 relative to GLP-1(7-37)OH'),
  ('HVEGTFTSDVSSYLEKQAAKEFIAWLVKGR-NH2 [Val^8-Lys^22-GLP-1(7-36)NH2]', '0.53 relative to GLP-1(7-37)OH'),
  ('HGEGHFTSDVSSYLEGQAAKEFIAWLVKGRG [Gly^8-His^11-GLP-1(7-37)OH]', '0.282 relative to GLP-1(7-37)OH');

Source listed as patent US20030220243A1.
